System: IGROV1 ovarian
protocol: NCI tumour cell line growth inhibition, 48 h; in the data active = GI50 below about 0.43 µM; inactive = the rest
Give your call using only these classes: active, inactive

Completed entries (count: 2):
>>> print(df.to_string())
                                   molecule  assigned_label
0  CC(=O)O.CC(=O)O.CC(=O)O.CC(=O)O.CC(=O)O.CC(=O)O.O.[Ti].[Ti]        inactive
1  O=C(Nc1ccc(OS(=O)(=O)c2ccccc2)cc1)C12CC3CC(CC(C3)C1)C2        inactive

# input Can you look up the reported call for COc1ncnc(C2CC2)c1-c1ncc2cnn(Cc3ccc(-c4nc(C(F)(F)F)cn4C(C)C)cc3)c2n1 for me?
# output inactive

# input Could you please tell me the result logged for NCCCNc1nc2ccccc2c2c(=O)c3cc(OC(F)(F)F)ccc3sc12 in this assay?
# output inactive

# input Short answer needed: outcome of this test for CC(C)=C[C@@H]1C[C@H](C)[C@H]2CC[C@H](C)C3=C2[C@](O)(OC3=O)[C@]1(C)O ?
# output inactive

# input Any idea what this test logged for CCC[CH2][Ge]([CH2]CCC)([CH2]CCC)[O]C(=O)CC(=O)c1ccccc1 ?
# output inactive

# input Answer briefly: the call reported for Cc1ccc(Cl)cc1Nc1nc(C(F)(F)F)ccc1C(=O)N1CCN(c2ccc(F)cc2)CC1 in this assay.
# output active

# input Could you kindly confirm the outcome this assay logged for Cc1ccc2c(n1)C(=O)c1[nH]c3ccccc3c1C2=O ?
# output active

# input Recorded call for COc1ccc2c(c1)C(C)Cc1c(Cl)ncnc1N2C (stereo not given) ?
# output inactive

# input Test call for this molecule, please: NC(=NCCCOc1ccc(Cl)cc1)Nc1ccc(C(F)(F)F)cc1
# output inactive

----------
Tested on: DMS 273 small cell lung
protocol: NCI tumour cell line growth inhibition, 48 h
endpoint: TGI

Examples from the recorded data:
>>> df
                                   molecule  reported_measurement
0  COc1ccc(C2S/C(=C\c3ccccc3O)C(=O)N2NC(=O)Cc2ccccc2)cc1 (stereo not given)              > 100 µM
1  COC(=O)C12C3C4C1C1C2C3C41C(=O)OC(C)(C)C (stereo not given)             > 60.5 µM
2   O=[n+]1c2c(n([O-])c3ccccc31)CCCCCCCCCC2              > 100 µM

# input for lookup
# input Would you mind telling me what TGI value was observed for CCCCN(CCCC)CC(C(=O)Nc1ccc([N+](=O)[O-])cc1[N+](=O)[O-])/C(C)=N\NC(=S)NN (stereo not given) ?
# output > 100 µM

----------
System: SF-539 CNS
protocol: NCI tumour cell line growth inhibition, 48 h
endpoint: TGI (µM)
Lab book: enter the figure in µM, no units written.

In [3]: df
Out[3]:
                                   compound  endpoint  reported_measurement
0  COc1ccc(C(=O)Sc2c(-c3ccccc3)c(=O)n(-c3ccccc3)c(=S)n2-c2ccccc2)cc1       TGI                  35.6

Moving on to another compound below.
# input I am curious: what TGI value has been reported for CC(SC(C)C(=O)N/N=C/c1cccc(Cl)c1)C(=O)N/N=C\c1cccc(Cl)c1 (stereo not given) ?
# output 44.2
